Target: 17β-hydroxysteroid dehydrogenase type 1 (Homo sapiens)
Construct: expressed in transfected cells; host or cells: MCF-7
Sequence (P14061 whole entry): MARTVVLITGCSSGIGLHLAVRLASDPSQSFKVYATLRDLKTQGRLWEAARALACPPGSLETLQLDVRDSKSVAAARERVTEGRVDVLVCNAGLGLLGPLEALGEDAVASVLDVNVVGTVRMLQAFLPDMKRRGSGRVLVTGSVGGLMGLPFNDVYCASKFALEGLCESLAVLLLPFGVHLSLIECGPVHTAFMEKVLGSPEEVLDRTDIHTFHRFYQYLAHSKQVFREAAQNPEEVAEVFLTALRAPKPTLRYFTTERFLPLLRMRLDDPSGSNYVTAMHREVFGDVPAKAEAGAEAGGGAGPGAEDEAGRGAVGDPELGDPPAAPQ
Assay: Inhibition of 17β-HSD type 1 in MCF-7 cells stably expressing the isoenzyme (HPLC, tritium labeled estrone)
Assay type: cell-based
Settings: MCF7, 10 μM compound, 2 nM estrone, read-out: % Inhibition of the 17β-HSD enzyme type 1 (HSD1)
outcome-measure: inhibition at 10 µM

Briefly, inhibition at 10 µM measured for O=c1c2c3c(sc2nc2n1CCCCC2)CCCCC3 : 39.8%

Briefly, inhibition at 10 µM measured for O=c1c2c3c(sc2nc2n1CCCCC2)CCCC3 : 45.9%

Briefly, inhibition at 10 µM measured for CCCSC1=C(C=O)CCc2c1sc1nc3n(c(=O)c21)CCC(C(=O)OC)CC3 (stereo not drawn) : 64.7%

Briefly, inhibition at 10 µM measured for CCOC(=O)C1CCCn2c1nc1sc3c(c1c2=O)CCCC3 (stereo not drawn) : 24.5%

Briefly, inhibition at 10 µM measured for CC1CCc2c(sc3nc4n(c(=O)c23)CCCCC4)C1 (stereo not drawn) : 25.6%

Briefly, inhibition at 10 µM measured for CC(C)SC1=C(C=O)CCc2c1sc1nc3n(c(=O)c21)CCCCC3 : 100%

Briefly, inhibition at 10 µM measured for Cc1nc2sc3c(c2c(=O)n1C)CCCC3 : 37%

Briefly, inhibition at 10 µM measured for CCCSC1=C(C=O)CCc2c1sc1nc3n(c(=O)c21)CCC(C(=O)O)CC3 (stereo not drawn) : 22.6%

Briefly, inhibition at 10 µM measured for CCCSC1=C(C=O)CCc2c1sc1nc3n(c(=O)c21)CCC(C(=O)OCC)CC3 (stereo not drawn) : 46.5%

Briefly, inhibition at 10 µM measured for CCCSC1=C(CO)CCc2c1sc1nc3n(c(=O)c21)CCCCC3 : 82.4%

Briefly, inhibition at 10 µM measured for CCSC1=C(C=O)CCc2c1sc1nc3n(c(=O)c21)CCCCC3 : 100%

Briefly, inhibition at 10 µM measured for CCOC(=O)C1CCc2nc3sc4c(c3c(=O)n2CC1)CCCC4 (stereo not drawn) : 18.6%

Briefly, inhibition at 10 µM measured for COC(=O)C1CCc2nc3sc4c(c3c(=O)n2CC1)CCC(C=O)=C4OC (stereo not drawn) : 32.3%

Briefly, inhibition at 10 µM measured for CCCSC1=C(C=O)CCc2c1sc1nc3n(c(=O)c21)CCC(C)CC3 (stereo not drawn) : 48.1%

Briefly, inhibition at 10 µM measured for CCCSC1=C(C=O)CCc2c1sc1nc3n(c(=O)c21)CCCCCC3 : 100%

Briefly, inhibition at 10 µM measured for O=c1c2c3c(sc2nc2n1CCCCC2)CCC3 : 15%

Briefly, inhibition at 10 µM measured for O=C(O)C1=C(Cl)c2sc3nc4n(c(=O)c3c2CC1)CCCCC4 : 6.8%

Briefly, inhibition at 10 µM measured for O=C1CCc2c1sc1nc3n(c(=O)c21)CCCCC3 : 20.7%

Briefly, inhibition at 10 µM measured for O=CC1=C([S+]([O-])c2ccccc2)c2sc3nc4n(c(=O)c3c2CC1)CCCCC4 (stereo not drawn) : 49%

Briefly, inhibition at 10 µM measured for O=c1c2c3c(sc2nc2n1CCC(CO)CC2)CCCC3 (stereo not drawn) : 22.4%

Briefly, inhibition at 10 µM measured for CCc1nc2sc3c(c2c(=O)n1C)CCCC3 : 18.5%

Briefly, inhibition at 10 µM measured for O=c1c2c3c(sc2nc2ccccn12)CCCC3 : 8.7%

Briefly, inhibition at 10 µM measured for O=c1c2c3c(sc2nc2n1CCCC2)CCCC3 : 20%

Briefly, inhibition at 10 µM measured for CCOC(=O)C1CCCn2c1nc1sc3c(c1c2=O)CCCC3=O (stereo not drawn) : 9.5%

Briefly, inhibition at 10 µM measured for O=C1CCCc2c1sc1nc3n(c(=O)c21)CCCC3 : 35.8%

Briefly, inhibition at 10 µM measured for O=c1c2c3c(sc2nc2n1CCC2)CCCC3 : 19.2%

Briefly, inhibition at 10 µM measured for CC1CCc2nc3sc4c(c3c(=O)n2CC1)CCCC4=O (stereo not drawn) : 39.4%

Briefly, inhibition at 10 µM measured for CC1CCc2nc3sc4c(c3c(=O)n2CC1)CCCC4 (stereo not drawn) : 19.6%

Briefly, inhibition at 10 µM measured for O=CC1=C(Cl)c2sc3nc4n(c(=O)c3c2CC1)CCCCCC4C=O (stereo not drawn) : 51.1%

Briefly, inhibition at 10 µM measured for CC1CCc2c(sc3nc4n(c(=O)c23)CCCCC4)C1O (stereo not drawn) : 22.5%

Briefly, inhibition at 10 µM measured for O=C1CCCc2c1sc1nc3n(c(=O)c21)CCCCCC3 : 42.9%

Briefly, inhibition at 10 µM measured for CCCCSC1=C(C=O)CCc2c1sc1nc3n(c(=O)c21)CCCCC3 : 100%

Briefly, inhibition at 10 µM measured for Cn1cnc2sc3c(c2c1=O)CCC(C=O)=C3Cl : 44.4%

Briefly, inhibition at 10 µM measured for CC(C)(C)C1CCc2c(sc3nc4n(c(=O)c23)CCCCC4)C1 (stereo not drawn) : 1.3%

Briefly, inhibition at 10 µM measured for CCOC(=O)C1CCc2nc3sc4c(c3c(=O)n2CC1)CCCC4=O (stereo not drawn) : 33.1%

Briefly, inhibition at 10 µM measured for CCCSC1=C(C=O)CCc2c1sc1nc3n(c(=O)c21)CCCCC3 : 100%

Briefly, inhibition at 10 µM measured for CC1CCc2nc3sc4c(c3c(=O)n2CC1)CCC(C=O)=C4Cl (stereo not drawn) : 45.7%

Briefly, inhibition at 10 µM measured for O=c1c2c3c(sc2nc2n1CCCCCC2)C(O)CCC3 (stereo not drawn) : 20%

Briefly, inhibition at 10 µM measured for CC1CCc2c(sc3nc4n(c(=O)c23)CCCCC4)C1=O (stereo not drawn) : 15.3%
